Sourced from patent US6271342A

parameter measured: % cleavage in hepatoma 24 hours (%)
Please state the figure in %; there is no need to write the unit.

[ask] Send back hepatoma % cleavage in hepatoma 24 hours of CO[C@H]1[C@H](O)[C@@H](Oc2ccc(NC(=S)NCCCC[C@H](NC(=S)Nc3ccc(O[C@H]4O[C@@H](C)[C@@H](O)[C@@H](OC)[C@@H]4O)cc3)C(=O)NC3C=CCC4CN(c5c(F)cc6c(=O)c(C(=O)O)cn(C7CC7)c6c5Cl)CC43)cc2)O[C@@H](C)[C@H]1O (stereo partly drawn) [Example 11.6] only.
[reply] 12

[ask] Send back hepatoma % cleavage in hepatoma 24 hours of CO[C@H]1[C@H](O)[C@@H](Oc2ccc(NC(=S)N[C@H](C)C(=O)NC3C=CCC4CN(c5c(F)cc6c(=O)c(C(=O)O)cn(C7CC7)c6c5Cl)CC43)cc2)O[C@@H](C)[C@H]1O (stereo partly drawn) [Example 12.1] only.
[reply] 0

[ask] Send back hepatoma % cleavage in hepatoma 24 hours of COC1C(O)C(C)OC(Oc2ccc(NC(=S)NCCCCC(NC(=S)Nc3ccc(OC4OC(C)C(O)C(OC)C4O)cc3)C(=O)NC3C=CCC4CN(c5c(F)cc6c(=O)c(C(=O)O)cn(C7CC7)c6c5Cl)CC43)cc2)C1O (mixture of isomers) [Example 11.7] only.
[reply] 0

====

So I've got a bunch of molecules here, and I need their % cleavage in human blood 24 hours values.
Experiment: Cleavage kinetics with human blood (HPLC)
Format: in vitro ADME
Settings: Table 2b; 37° C.
Please state the figure in %; there is no need to write the unit.

[ask] Recall and state the measured % cleavage in human blood 24 hours for COC1C(O)C(C)OC(Oc2ccc(NC(=S)NCCCCC(NC(=S)Nc3ccc(OC4OC(C)C(O)C(OC)C4O)cc3)C(=O)NC3C=CCC4CN(c5c(F)cc6c(=O)c(C(=O)O)cn(C7CC7)c6c5Cl)CC43)cc2)C1O (mixture of isomers) .
[reply] 0

[ask] Recall and state the measured % cleavage in human blood 24 hours for C[C@@H]1O[C@H](Oc2ccc(NC(=S)N[C@H](C)C(=O)NC3C=CCC4CN(c5c(F)cc6c(=O)c(C(=O)O)cn(C7CC7)c6c5Cl)CC43)cc2)[C@@H](O)[C@H](OCC(=O)[O-])[C@@H]1O.[Na+] (some centres unmarked) .
[reply] 0

[ask] Recall and state the measured % cleavage in human blood 24 hours for CO[C@H]1[C@H](O)[C@@H](Oc2ccc(NC(=S)NCCCC[C@H](NC(=S)Nc3ccc(O[C@H]4O[C@@H](C)[C@@H](O)[C@@H](OC)[C@@H]4O)cc3)C(=O)N[C@@H](C)C(=O)NC3C=CCC4CN(c5c(F)cc6c(=O)c(C(=O)O)cn(C7CC7)c6c5Cl)CC43)cc2)O[C@@H](C)[C@H]1O (some centres unmarked) .
[reply] 0

[ask] Recall and state the measured % cleavage in human blood 24 hours for CO[C@H]1[C@H](O)[C@@H](Oc2ccc(NC(=S)N[C@H](C)C(=O)NC3C=CCC4CN(c5c(F)cc6c(=O)c(C(=O)O)cn(C7CC7)c6c5Cl)CC43)cc2)O[C@@H](C)[C@H]1O (some centres unmarked) .
[reply] 0

[ask] Recall and state the measured % cleavage in human blood 24 hours for CO[C@H]1[C@H](O)[C@@H](Oc2ccc(NC(=S)NCCCC[C@H](NC(=S)Nc3ccc(O[C@H]4O[C@@H](C)[C@@H](O)[C@@H](OC)[C@@H]4O)cc3)C(=O)NC3C=CCC4CN(c5c(F)cc6c(=O)c(C(=O)O)cn(C7CC7)c6c5Cl)CC43)cc2)O[C@@H](C)[C@H]1O (some centres unmarked) .
[reply] 11

====

Test system: SW 480
Assay: Growth inhibition test (MTT) for cytotoxic properties
Type: cell-based, human
Details: Table 1a, glycoconjugates of batracyline
Counter-ions that a name gives are not always drawn.
Checkbox rule: IC50 lower than 70 µM = Y; IC50 not lower than 70 µM = N.

[ask] Lab log: compare recorded IC50 with 70 µM; is it strictly lower for CC(NC(=O)C(N)CCCCNC(=S)Nc1ccc(OC2OC(CO)C(O)C(OCC(=O)[O-])C2O)cc1)C(=O)Nc1ccc2c(c1)CN1C(=O)c3ccccc3C1=N2.[Na+] (stereo not drawn) [Example 3.33, sodium salt] ?
[reply] N

[ask] Lab log: compare recorded IC50 with 70 µM; is it strictly lower for O=C(O)CO[C@H]1[C@@H](O)[C@@H](CO)O[C@@H](Oc2ccc(NC(=S)NCCCC[C@H](NC(=S)Nc3ccc(O[C@@H]4O[C@H](CO)[C@H](O)[C@H](OCC(=O)O)[C@H]4O)cc3)C(=O)Nc3ccc4nc5n(c(=O)c4c3)Cc3ccccc3-5)cc2)[C@@H]1O [Example 6.28, di-sodium salt] ?
[reply] Y

[ask] Lab log: compare recorded IC50 with 70 µM; is it strictly lower for NC(=O)COC1C(O)C(CO)OC(Oc2ccc(NC(=S)NCCCCC(NC(=S)Nc3ccc(OC4OC(CO)C(O)C(OCC(N)=O)C4O)cc3)C(=O)Nc3ccc4nc5n(c(=O)c4c3)Cc3ccccc3-5)cc2)C1O (stereo not drawn) [Example 6.29] ?
[reply] N

[ask] Lab log: compare recorded IC50 with 70 µM; is it strictly lower for CC(NC(=O)C(CCCCNC(=S)Nc1ccc(OC2OC(CO)C(O)C(OCC(=O)[O-])C2O)cc1)NC(=S)Nc1ccc(OC2OC(CO)C(O)C(OCC(=O)[O-])C2O)cc1)C(=O)Nc1ccc2nc3n(c(=O)c2c1)Cc1ccccc1-3.[Na+].[Na+] (stereo not drawn) [Example 6.81, di-sodium salt] ?
[reply] Y

[ask] Lab log: compare recorded IC50 with 70 µM; is it strictly lower for CC(NC(=O)C(CCCCNC(=S)Nc1ccc(OC2OC(CO)C(O)C(OCC(N)=O)C2O)cc1)NC(=S)Nc1ccc(OC2OC(CO)C(O)C(OCC(N)=O)C2O)cc1)C(=O)Nc1ccc2nc3n(c(=O)c2c1)Cc1ccccc1-3 (stereo not drawn) [Example 6.82] ?
[reply] N

[ask] Lab log: compare recorded IC50 with 70 µM; is it strictly lower for C[C@@H]1O[C@H](Oc2ccc(NC(=S)NCCCC[C@H](N)C(=O)N[C@H](C)C(=O)Nc3ccc4c(c3)CN3C(=O)c5ccccc5C3=N4)cc2)[C@@H](O)C[C@@H]1O [Example 3.7] ?
[reply] Y

[ask] Lab log: compare recorded IC50 with 70 µM; is it strictly lower for COC1C(Oc2ccc(NC(=S)NCCCCC(N)C(=O)NC(C)C(=O)Nc3ccc4nc5n(c(=O)c4c3)Cc3ccccc3-5)cc2)OC(CO)C(O)C1OC (stereo not drawn) [Example 3.27] ?
[reply] N

[ask] Lab log: compare recorded IC50 with 70 µM; is it strictly lower for CC(NC(=O)C(CO)NC(=S)Nc1ccc(OC2OC(C)C(O)C(O)C2O)cc1)C(=O)Nc1ccc2c(c1)Cn1c-2nc2ccccc2c1=O (stereo not drawn) [Example 7.3] ?
[reply] Y

====

So I've got a bunch of compounds here, and I need their IC70 /μg/ml values.
Tested on: SW 480
Test: Two-layer soft agar culture of human tumour xenografts
Format: cell-based
Conditions: T/C ≤30%
Please state the figure in µg/mL; there is no need to write the unit.

[ask] Send back SW 480 IC70 /μg/ml of COC1C(O)C(C)OC(Oc2ccc(NC(=S)NCCCCC(NC(=S)Nc3ccc(OC4OC(C)C(O)C(OC)C4O)cc3)C(=O)NC3C=CCC4CN(c5c(F)cc6c(=O)c(C(=O)O)cn(C7CC7)c6c5Cl)CC43)cc2)C1O (mixture of isomers) only.
[reply] 18

[ask] Send back SW 480 IC70 /μg/ml of N[C@@H]1C=CC[C@@H]2CN(c3c(F)cc4c(=O)c(C(=O)O)cn(C5CC5)c4c3Cl)C[C@@H]21 (racemic) [Quinolone-a, reference compound] only.
[reply] 3

[ask] Send back SW 480 IC70 /μg/ml of C[C@@H]1O[C@H](Oc2ccc(NC(=S)N[C@H](C)C(=O)NC3C=CCC4CN(c5c(F)cc6c(=O)c(C(=O)O)cn(C7CC7)c6c5Cl)CC43)cc2)[C@@H](O)[C@H](OCC(=O)[O-])[C@@H]1O.[Na+] (some centres unmarked) only.
[reply] 11

[ask] Send back SW 480 IC70 /μg/ml of CO[C@H]1[C@H](O)[C@@H](Oc2ccc(NC(=S)N[C@H](C)C(=O)NC3C=CCC4CN(c5c(F)cc6c(=O)c(C(=O)O)cn(C7CC7)c6c5Cl)CC43)cc2)O[C@@H](C)[C@H]1O (some centres unmarked) only.
[reply] 8

[ask] Send back SW 480 IC70 /μg/ml of COC1C(O)C(C)OC(Oc2ccc(NC(=S)NC(CCCCN)C(=O)NC3C=CCC4CN(c5c(F)cc6c(=O)c(C(=O)O)cn(C7CC7)c6c5Cl)CC43)cc2)C1O (centres unmarked) only.
[reply] 10
